- assay-text: NCI Yeast Anticancer Drug Screen. Data for the sgs1 mgt1 strain (AID 161);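 note: 0% = growth of cultures given vehicle only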
- condition-description: S. cerevisiae sgs1 mgt1 strain, at 50.0 µM
About 79,000 compounds went through this panel and 15% of them were active in at least one assay; those are over-represented in the sample as a whole. The source made the active and inactive calls. Cut-off read from the data, not from the text of the source: active = growth inhibition above about 70%; inactive = the rest.
Pick one and only one: true (1) (active), false (0) (inactive)

Task item: Per the records of this test, what outcome belongs to `CCCc1ccc(CCN)cc1` ?
Reply: false (0)

Task item: Per the records of this test, what outcome belongs to `N/C(=N/N=C/c1ccc(O)cc1)N[N+](=O)[O-]` ?
Reply: false (0)

Task item: Per the records of this test, what outcome belongs to `CCOC(=N)N1[C@H](C)[C@@H]1C` ?
Reply: false (0)

Task item: Per the records of this test, what outcome belongs to `Cc1c2ccncc2c(C)c2c1[nH]c1ccccc12` ?
Reply: true (1)

Task item: Per the records of this test, what outcome belongs to `O=C(CC(=O)C(F)(F)F)c1ccco1.[Fe]` ?
Reply: false (0)

Task item: Per the records of this test, what outcome belongs to O=C1NC(=O)C(F)(n2cc(F)c(=O)[nH]c2=O)C(O)N1 (configuration not stated) ?
Reply: false (0)

Task item: Per the records of this test, what outcome belongs to `Clc1ccc(-c2csc3cccc[n+]23)cc1` ?
Reply: false (0)

Task item: Per the records of this test, what outcome belongs to `COc1ccc(N)cc1N` ?
Reply: false (0)

Task item: Per the records of this test, what outcome belongs to `CN(N)/N=N/c1nc[nH]c1[N+](=O)[O-]` ?
Reply: false (0)

Task item: Per the records of this test, what outcome belongs to `CC[N+](CC)(CC)CC.N#CC(C#N)=C([SH2+])[SH2+].N#CC(C#N)=C([SH2+])[SH2+].[Co+2]` ?
Reply: false (0)

Task item: Per the records of this test, what outcome belongs to `O=C1NC(=O)C(O)(Cc2ccccn2)C(=O)N1` ?
Reply: false (0)

Task item: Per the records of this test, what outcome belongs to `COc1ccc2c(c1OC)C(=O)O[C@@H]2[C@H]1c2cc3c(cc2CCN1C)OCO3` ?
Reply: false (0)

Task item: Per the records of this test, what outcome belongs to `O=C(O)CCCO` ?
Reply: false (0)

Task item: Per the records of this test, what outcome belongs to CC(=O)C1(O)CCC2(O)C3(O)CC=C4CC(O)CCC4(C)C3CC(OC(=O)c3ccc(O)cc3)C12C (configuration not stated) ?
Reply: false (0)

Task item: Per the records of this test, what outcome belongs to `Cc1nnn[n-]1.N.N.N.N.N.[Cl-].[Co+3]` ?
Reply: false (0)

Task item: Per the records of this test, what outcome belongs to `Cc1cc(S(=O)(=O)F)ccc1NC(=O)/C=C/c1ccc([N+](=O)[O-])cc1` ?
Reply: false (0)

Task item: Per the records of this test, what outcome belongs to `C#CC(=O)[O][Sn]([c]1ccccc1)([c]1ccccc1)[c]1ccccc1` ?
Reply: true (1)

====

- assay-text: NCI Yeast Anticancer Drug Screen. Data for the mec2-1 strain (AID 157)
- condition-description: S. cerevisiae mec2-1 strain, at 50.0 µM, stronger effect = higher value
- Method: Growth inhibition of yeast strains with defined genetic alterations is measured as a screen for potential anti-cancer activity. Selected strains with alterations in DNA damage repair or cell cycle control were exposed to compounds and growth inhibition was measured relative to vehicle treated controls. The strain used in this assay is mec2-1
About 79,000 compounds went through this panel and 15% of them were active in at least one assay; those are over-represented in the sample as a whole.
I'd be grateful if you could share measured growth inhibition for these entries.
Express the result in % but write the number alone.

Given item C/C=C1\CN2CCC1CC2C(O)c1ccnc2ccc(O)cc12 (configuration not stated) , the value recorded as its growth inhibition is -13.7

Given item `CC1=C2C(=O)C(C)(C)C=C2C(=O)[C@](C)(O)C12CC2` , the value recorded as its growth inhibition is 47.1

Given item `c1ccc(C(c2ccccc2)C2CCNCC2)cc1` , the value recorded as its growth inhibition is 6.8

Given item `O=S(=O)(F)c1ccccc1C[P+](c1ccccc1)(c1ccccc1)c1ccccc1` , the value recorded as its growth inhibition is 86

Given item `Clc1ccc(C(c2ccc(Cl)cc2)c2ccccn2)cc1` , the value recorded as its growth inhibition is 98.3

Given item `Clc1ccc(NC2=NCCS2)cc1Cl` , the value recorded as its growth inhibition is -22.8

Given item `c1cc2n[se]nc2cc1-c1ccc2n[se]nc2c1` , the value recorded as its growth inhibition is -11.8

Given item `CSP(=S)(SC)SC(C)C` , the value recorded as its growth inhibition is 1.65

Given item `COCCOC(=O)NCP(Cl)(CNC(=O)OCCOC)(CNC(=O)OCCOC)CNC(=O)OCCOC` , the value recorded as its growth inhibition is -4.85

Given item `O=[C-]C(F)(F)F.[C-]#[O+].[C-]#[O+].[C-]#[O+].[Mo].[c-]1[c-][c-][cH-][c-]1` , the value recorded as its growth inhibition is 13.3

Given item `O=C1NC(=O)C(Cc2ccc3c(c2)OCO3)C(=O)N1` , the value recorded as its growth inhibition is -9.5

Given item CC1NCCc2cc(O)c(O)cc21 (configuration not stated) , the value recorded as its growth inhibition is 6.3
